# Test method notes: Toxicity in Artemia salina
# Type: organism-based
# Experimental parameters: in vivo
Assay metric: LC50 (µM)
The reply should contain only the number, in µM.

Recorded LC50 of `CC(C)=CC[C@H]1C[C@]2(CC=C(C)C)C(=O)C(C(=O)c3ccccc3)=C(O)[C@](CC=C(C)C)(C2=O)C1(C)C` , please.
49.7
